System: CYP3A4
Experiment: in vitro
Details: female, Swiss noble, pig, pH 7.4, Papp,pig Ex Vivo (+CLOTR), jejunum, 100 µM in KBR, with clotrimazole 100 µM
Measured metric: Papp at 120 min, 100 µM

Return value of Papp at 120 min, 100 µM for input Cc1ncc2n1-c1ccc(Cl)cc1C(c1ccccc1F)=NC2 [Midazolam] , no commentary.
0.46 ×10⁻⁶ cm/s

----------
Experiment: Passive absorption across viable porcine intestine (jejunum) ex vivo, Ussing chamber, from KBR and biorelevant media
Conditions: female, Swiss noble, pig, pH 5.8
Papp at 120 min, 100 µM listing for selected molecules.
A number alone suffices; assume ×10⁻⁶ cm/s.

Some molecules with recorded Papp at 120 min, 100 µM:
CN1C(C(=O)Nc2ccccn2)=C(O)c2ccccc2S1(=O)=O = 5.14
COCCc1ccc(OCC(O)CNC(C)C)cc1 (racemic) [Metoprolol, (+/−)-Metoprolol] = 5.79
NS(=O)(=O)c1cc2c(cc1Cl)NCNS2(=O)=O [Hydrochlorothiazide] = 1.37

Alright, here's another molecule for you.
Return value of Papp at 120 min, 100 µM for input NC(=O)N1c2ccccc2C=Cc2ccccc21 [Carbamazepine] , no commentary.
4.26

----------
Assay: Solubility in KBR, FaSSIF V2 and FeSSIF V2
Details: FeSSIF V2, pH 5.8, fessif
Measured metric: solubility (mg/mL)
A number alone suffices; assume mg/mL.

CNC(=C[N+](=O)[O-])NCCSCc1ccc(CN(C)C)o1 = 808

Return value of solubility for input "CN1C(C(=O)Nc2ccccn2)=C(O)c2ccccc2S1(=O)=O" , no commentary.
0.06

Return value of solubility for input NC(=O)N1c2ccccc2C=Cc2ccccc21 [Carbamazepine] , no commentary.
0.73

Return value of solubility for input COCCc1ccc(OCC(O)CNC(C)C)cc1 (racemic) [Metoprolol, (+/−)-Metoprolol] , no commentary.
381

----------
Test: Passive absorption across viable porcine intestine (jejunum) ex vivo, Ussing chamber, from KBR and biorelevant media
Conditions: female, Swiss noble, pig, pH 6.5
Papp at 120 min, 100 µM listing for selected molecules.
A number alone suffices; assume ×10⁻⁶ cm/s.

Some molecules with recorded Papp at 120 min, 100 µM:
NC(=O)N1c2ccccc2C=Cc2ccccc21 [Carbamazepine] = 5.97
NS(=O)(=O)c1cc2c(cc1Cl)NCNS2(=O)=O [Hydrochlorothiazide] = 0.2
CN1C(C(=O)Nc2ccccn2)=C(O)c2ccccc2S1(=O)=O [Piroxicam] = 10.8

Alright, here's another molecule for you.
Return value of Papp at 120 min, 100 µM for input COCCc1ccc(OCC(O)CNC(C)C)cc1 (racemic) [Metoprolol, (+/−)-Metoprolol] , no commentary.
7.62

----------
Test system: viable porcine intestine (jejunum)
Assay: Passive absorption across viable porcine intestine (jejunum) ex vivo, Ussing chamber, from KBR and biorelevant media
Details: amount permeated at 2 h as % of donor; FeSSIF V2
QPERM FeSSIF V2 listing for selected compounds.
A number alone suffices; assume %.

Some compounds with recorded QPERM FeSSIF V2:
COCCc1ccc(OCC(O)CNC(C)C)cc1 (racemic) [Metoprolol, (+/−)-Metoprolol] = 0.74
CN1C(C(=O)Nc2ccccn2)=C(O)c2ccccc2S1(=O)=O = 1.13
NS(=O)(=O)c1cc2c(cc1Cl)NCNS2(=O)=O [Hydrochlorothiazide] = 0.23

Alright, here's another compound for you.
Return value of QPERM FeSSIF V2 for input NC(=O)N1c2ccccc2C=Cc2ccccc21 [Carbamazepine] , no commentary.
0.58
